IC50 values, listed per item
Molecular target: Human immunodeficiency virus type 1 integrase (Human immunodeficiency virus 1, UniProt Q7ZJM1)
Sequence (Q7ZJM1 whole entry): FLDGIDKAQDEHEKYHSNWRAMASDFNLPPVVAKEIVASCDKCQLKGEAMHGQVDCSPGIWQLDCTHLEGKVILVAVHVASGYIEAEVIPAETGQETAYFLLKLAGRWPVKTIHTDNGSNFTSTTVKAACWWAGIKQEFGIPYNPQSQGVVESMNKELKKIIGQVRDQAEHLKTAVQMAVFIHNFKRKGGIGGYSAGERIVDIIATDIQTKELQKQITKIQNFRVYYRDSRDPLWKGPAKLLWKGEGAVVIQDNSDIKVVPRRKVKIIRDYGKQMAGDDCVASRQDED
Test: Inhibition of HIV1 integrase strand transfer activity
Quantity: IC50 (µM)

- Query Smiles: "Cc1cc(S(=O)(=O)Nc2nc3cc(-c4ccsc4)sc3c(=O)n2Cc2ccco2)c(S)cc1Cl"
  Comparative Sign: "="
  Recorded Result: 6
- Query Smiles: "Cc1cc(S(=O)(=O)Nc2nc3sc(C)c(C)c3c(=O)n2N)c(S)cc1Cl"
  Comparative Sign: "="
  Recorded Result: 39
- Query Smiles: "COc1ccc(NC(=O)c2cc(S(=O)(=O)Nc3nc4ccccc4c(=O)[nH]3)c(SCc3ccccc3)cc2Cl)cc1"
  Comparative Sign: "="
  Recorded Result: 93
- Query Smiles: "NC(=O)c1cc(S(=O)(=O)Nc2nc3ccccc3c(=O)[nH]2)c(SCc2ccccc2)cc1Cl"
  Comparative Sign: ">"
  Recorded Result: 100
- Query Smiles: "Cc1cc(S(=O)(=O)Nc2nc3cscc3c(=O)n2N)c(S)cc1Cl"
  Comparative Sign: "="
  Recorded Result: 43
- Query Smiles: "Cc1cc(S(=O)(=O)Nc2nc3ccsc3c(=O)[nH]2)c(SCc2ccccc2)cc1Cl"
  Comparative Sign: "="
  Recorded Result: 70
- Query Smiles: "Cc1cc(S(=O)(=O)Nc2nc3cc(-c4ccccc4)sc3c(=O)n2Cc2ccccc2)c(S)cc1Cl"
  Comparative Sign: "="
  Recorded Result: 6
- Query Smiles: "Cc1cc(S(=O)(=O)Nc2nc3scc(C)c3c(=O)n2N)c(S)cc1Cl"
  Comparative Sign: "="
  Recorded Result: 81
- Query Smiles: "Cc1cc(S(=O)(=O)Nc2nc3cc(Cl)ccc3c(=O)[nH]2)c(SCc2ccccc2)cc1Cl"
  Comparative Sign: "="
  Recorded Result: 33
- Query Smiles: "Cc1cc(S(=O)(=O)Nc2nc3ccsc3c(=O)n2N)c(S)cc1Cl"
  Comparative Sign: "="
  Recorded Result: 53
- Query Smiles: "Cc1ccc(NC(=O)c2cc(S(=O)(=O)Nc3nc4ccccc4c(=O)[nH]3)c(SCc3ccccc3)cc2Cl)cc1"
  Comparative Sign: "="
  Recorded Result: 77
- Query Smiles: "Cc1cc(S(=O)(=O)Nc2nc3ccccc3c(=O)[nH]2)c(SCc2ccccc2)cc1Cl"
  Comparative Sign: "="
  Recorded Result: 83
- Query Smiles: "Cc1cc(S(=O)(=O)Nc2nc3cc(C(C)(C)C)sc3c(=O)n2N)c(S)cc1Cl"
  Comparative Sign: "="
  Recorded Result: 35
- Query Smiles: "O=C(Nc1ccc(Cl)cc1)c1cc(S(=O)(=O)Nc2nc3ccccc3c(=O)[nH]2)c(SCc2ccccc2)cc1Cl"
  Comparative Sign: "="
  Recorded Result: 52
- Query Smiles: "Cc1cc(S(=O)(=O)Nc2nc3ccccc3c(=O)n2Cc2ccco2)c(S)cc1Cl"
  Comparative Sign: "="
  Recorded Result: 42
- Query Smiles: "Cc1cc(S(=O)(=O)Nc2nc3n[nH]cc3c(=O)n2N)c(S)cc1Cl"
  Comparative Sign: ">"
  Recorded Result: 100
- Query Smiles: "Cc1cc(S(=O)(=O)Nc2nc3ccsc3c(=O)n2Cc2ccccc2)c(S)cc1Cl"
  Comparative Sign: "="
  Recorded Result: 29
- Query Smiles: "Cc1cc(S(=O)(=O)Nc2nc(=O)c3ccccc3n2C)c(SCc2ccccc2)cc1Cl"
  Comparative Sign: "="
  Recorded Result: 90
- Query Smiles: "Cc1cc(S(=O)(=O)Nc2nc3cscc3c(=O)[nH]2)c(SCc2ccccc2)cc1Cl"
  Comparative Sign: "="
  Recorded Result: 78
- Query Smiles: "O=C(Nc1ccccc1)c1cc(S(=O)(=O)Nc2nc3ccccc3c(=O)[nH]2)c(SCc2ccccc2)cc1Cl"
  Comparative Sign: "="
  Recorded Result: 36
- Query Smiles: "Cc1cc(S(=O)(=O)Nc2nc3cc(C(C)(C)C)sc3c(=O)n2Cc2ccccc2)c(S)cc1Cl"
  Comparative Sign: "="
  Recorded Result: 4
- Query Smiles: "Cc1cc(S(=O)(=O)Nc2nc3cscc3c(=O)n2Cc2ccccc2)c(S)cc1Cl"
  Comparative Sign: "="
  Recorded Result: 31
- Query Smiles: "Cc1cc(S(=O)(=O)Nc2nc3ccccc3c(=O)n2N)c(S)cc1Cl"
  Comparative Sign: ">"
  Recorded Result: 100
- Query Smiles: "Cc1cc(S(=O)(=O)Nc2nc3cc(-c4ccc(Cl)cc4)sc3c(=O)n2Cc2ccccc2)c(S)cc1Cl"
  Comparative Sign: "="
  Recorded Result: 4
- Query Smiles: "COc1cc2nc(NS(=O)(=O)c3cc(C)c(Cl)cc3S)n(N)c(=O)c2cc1OC"
  Comparative Sign: ">"
  Recorded Result: 100
- Query Smiles: "Cc1cc(S(=O)(=O)Nc2nc(N)n[nH]2)c(S)cc1Cl"
  Comparative Sign: "="
  Recorded Result: 4.9
- Query Smiles: "Cc1cc(S(=O)(=O)Nc2nc3ccsc3c(=O)n2Cc2ccco2)c(S)cc1Cl"
  Comparative Sign: "="
  Recorded Result: 53

// data source = ChEMBL document CHEMBL1156690
